pIC50: −log10 of the molar value.
Assay system human lung cancer strain NCI-H441; read-out recorded as pIC50.

{"Structure as smiles": "CCCN(C)C(=O)[C@@H]1CC(=O)N(C)[C@@H](COC)C(=O)N[C@@H]([C@@H](C)CC)C(=O)N(C)CC(=O)N(C)[C@H]2C/C=C\\CCN(C2=O)[C@@H](Cc2ccc(C(F)(F)F)cc2)C(=O)N(C)CC(=O)N[C@@H](CCc2cc(F)c(C(F)(F)F)c(F)c2)C(=O)N2C[C@H](OCC)C[C@H]2C(=O)NC2(CCC2)C(=O)N(C)[C@@H](C2CCCC2)C(=O)N1C", "pIC50": 8.17}
{"Structure as smiles": "CC[C@H](C)[C@@H]1NC(=O)[C@H](CC(C)C)N(C)C(=O)C[C@@H](C(=O)N(C)C)N(C)C(=O)[C@H](C2CCCC2)N(C)C(=O)C2(CCCC2)NC(=O)[C@@H]2CCCN2C(=O)[C@H](CCc2ccc(C(F)(F)F)c(Cl)c2)NC(=O)CN(C)C(=O)[C@H](Cc2ccc(C(F)(F)F)cc2)N2C/C=C\\COC[C@@H](C2=O)N(C)C(=O)CN(C)C1=O", "pIC50": 6.80}

----------
- Tested on: human lung cancer strain NCI-H441
- Assay text: cells
- Experimental context: NCI-H441, 96 h, read-out: NCI-H441 IC50 (nM)
Measurement kind: IC50

{"Structure as smiles": "CCO[C@@H]1C[C@H]2C(=O)NC3(CCC3)C(=O)N(C)[C@@H](C3CCCC3)C(=O)N(C)[C@H](C(=O)N(C)C)CC(=O)N(C)[C@@H](CC(C)C)C(=O)N[C@@H]([C@@H](C)CC)C(=O)N(C)CC(=O)N(C)[C@H]3C/C=C\\CCN(C3=O)[C@@H](Cc3ccc(C(F)(F)F)cc3)C(=O)N(C)CC(=O)N[C@@H](CCc3ccc(Cl)c(Cl)c3)C(=O)N2C1", "Observed result": "10.2 nM"}
{"Structure as smiles": "CCO[C@@H]1C[C@H]2C(=O)NC3(CCC3)C(=O)N(C)[C@@H](C3CCCC3)C(=O)N(C)[C@H](C(=O)N(C)C)CC(=O)N(C)[C@@H](CC(C)C)C(=O)N[C@@H]([C@@H](C)CC)C(=O)N(C)CC(=O)N(C)[C@H]3C/C=C\\CCN(C3=O)[C@@H](Cc3ccc(C(F)(F)F)cc3)C(=O)N(C)CC(=O)N[C@@H](CCc3cc(F)c(Cl)c(F)c3)C(=O)N2C1", "Observed result": "18.9 nM"}
{"Structure as smiles": "CC[C@H](C)[C@@H]1NC(=O)[C@H](CC)N(C)C(=O)C[C@@H](C(=O)N2CCOCC2)N(C)C(=O)[C@H](C2CCCC2)N(C)C(=O)C2(CCCC2)NC(=O)[C@@H]2CCCN2C(=O)[C@H](CCc2cc(F)c(C(F)(F)F)c(F)c2)NC(=O)CN(C)C(=O)[C@H](Cc2ccc(C(F)(F)F)cc2)N2C[C@H](C)[C@H](C)C[C@@H](C2=O)N(C)C(=O)CN(C)C1=O", "Observed result": "4.2 nM"}

----------
- Measurement target: UniProt:P01116
- Assay text: Binding to KRAS by surface plasmon resonance (SPR), Single Cycle Kinetics
- Experimental context: SPR, Single Cycle Kinetics; GDP-bound KRAS wild-type protein
*1 amine or outer side, *2 acyl side, *3 side chain or, on linkers, in order; H or OH if unused. Where a SMILES comes first, the peptide text is derived from it. Bridges are numbered along the chain shown (N, C = ends). [ ]: non-standard residue; d: D form. The star is where a group is joined. hPhe(3,5-F2-4-CF3) = N[C@@H](CCc1cc(F)c(C(F)(F)F)c(F)c1)C(=O)O; X8 = CCCN([C@@H](Cc1ccc(OCC=[*:3])cc1)C(=O)[*:2])[*:1]; NPrPhe(4-CF3) = CCCN[C@@H](Cc1ccc(C(F)(F)F)cc1)C(=O)O; X1 = CN([C@@H](CCCC=[*:3])C(=O)[*:2])[*:1]; X7 = CN([C@@H](CCC=[*:3])C(=O)[*:2])[*:1]; X2 = C[C@@](CC=[*:3])(N[*:1])C(=O)[*:2]; NMeGly(cPent) = CN[C@H](C(=O)O)C1CCCC1; Hyp = O=C(O)[C@@H]1C[C@@H](O)CN1; NMeD = CN[C@@H](CC(=O)O)C(=O)O; Morpholide = C1CN(*)CCO1; Ac5c = NC1(C(=O)O)CCCC1; Sar = CNCC(=O)O
Classes are defined on Kd with ranges low (below 100 pM), intermediate (100 pM to below 800 pM), high (800 pM or more)

{"Compound": "CCO[C@@H]1C[C@H]2C(=O)NC3(CC(C)(C)C3)C(=O)N(C)[C@@H](C(CC)CC)C(=O)N(C)C(C(C)C)CC(=O)N(C)[C@@H](CC3CC3)C(=O)N[C@@H]([C@@H](C)CC)C(=O)N(C)CC(=O)N(C)[C@H]3C/C=C\\CCN(C3=O)[C@@H](Cc3ccc(C(F)(F)F)cc3)C(=O)N(C)CC(=O)N[C@@H](CCc3cc(F)c(C(F)(F)F)c(F)c3)C(=O)N2C1 (stereo partly shown)", "Group label": "high"}
{"Compound": "CCCN1C(=O)CN(C)C(=O)CN(C)C(=O)[C@H]([C@@H](C)CC)NC(=O)[C@@H]2CCC/C=C\\C[C@](C)(NC(=O)[C@@H]3C[C@@H](OCC)CN3C(=O)[C@H](CCc3cc(F)c(C(F)(F)F)c(F)c3)NC(=O)CN(C)C(=O)[C@@H]1Cc1ccc(C(F)(F)F)cc1)C(=O)N(C)[C@@H](C1CCCC1)C(=O)N(C)[C@H](C(=O)N1CCOCC1)CC(=O)N2C [PP0901] ([X1]I[Sar][Sar][NPrPhe(4-CF3)][Sar][hPhe(3,5-F2-4-CF3)][Hyp](Et)[X2][NMeGly(cPent)][NMeD]-Morpholide; staple (Z) 1-9; lactam N-11)", "Group label": "high"}
{"Compound": "CC[C@H](C)[C@@H]1NC(=O)[C@H](CC2CC2)N(C)C(=O)C[C@@H](C(=O)N(C)C)N(C)C(=O)[C@H](C2CCCC2)N(C)C(=O)C2(CCC2)NC(=O)[C@@H]2C[C@@H](C(F)(F)F)CN2C(=O)[C@H](CCc2cc(F)c(C(F)(F)F)c(F)c2)NC(=O)CN(C)C(=O)[C@H](Cc2ccc(C(F)(F)F)cc2)N2CC/C=C\\C[C@@H](C2=O)N(C)C(=O)CN(C)C1=O", "Group label": "low"}
{"Compound": "CCO[C@@H]1C[C@H]2C(=O)NC3(CC(F)(F)C3)C(=O)N(C)[C@@H](C3CCCC3)C(=O)N(C)C(C3CCCCC3)CC(=O)N(C)[C@@H](COC)C(=O)N[C@@H]([C@@H](C)CC)C(=O)N(C)CC(=O)N(C)[C@H]3C/C=C\\CCN(C3=O)[C@@H](Cc3ccc(C(F)(F)F)cc3)C(=O)N(C)CC(=O)N[C@@H](CCc3cc(F)c(C(F)(F)F)c(F)c3)C(=O)N2C1 (stereo partly shown)", "Group label": "intermediate"}
{"Compound": "CCCN1C(=O)CN(C)C(=O)CN(C)C(=O)[C@H]([C@@H](C)CC)NC(=O)[C@@H]2CCCCCCC[C@@H](NC(=O)[C@@H]3C[C@@H](OCC)CN3C(=O)[C@H](CCc3cc(F)c(C(F)(F)F)c(F)c3)NC(=O)CN(C)C(=O)[C@@H]1Cc1ccc(C(F)(F)F)cc1)C(=O)N(C)[C@@H](C1CCCC1)C(=O)N(C)[C@H](C(=O)N(C)C)CC(=O)N2C", "Group label": "high"}
{"Compound": "CCCCCC[C@H]1C(=O)N[C@@H]([C@@H](C)CC)C(=O)N(C)CC(=O)N(C)[C@H]2C/C=C\\CCN(C2=O)[C@@H](Cc2ccc(C(F)(F)F)cc2)C(=O)N(C)CC(=O)N[C@@H](CCc2ccc(C(F)(F)F)c(OC)c2)C(=O)N2C[C@H](OCC)C[C@H]2C(=O)NC2(CCC2)C(=O)N(C)[C@@H](C2CCCC2)C(=O)N(C)[C@H](C(=O)N(C)C)CC(=O)N1C", "Group label": "low"}
{"Compound": "CC[C@H](C)[C@@H]1NC(=O)[C@H](CC)N(C)C(=O)C[C@@H](C(=O)N(C)C)N(C)C(=O)[C@H](C2CCCC2)N(C)C(=O)C2(CCC2)NC(=O)[C@@H]2C[C@H](C)CN2C(=O)[C@H](CCc2cc(F)c(C(F)(F)F)c(F)c2)NC(=O)CN(C)C(=O)[C@H](CC2CCC(F)(F)CC2)N2CC/C=C\\C[C@@H](C2=O)N(C)C(=O)CN(C)C1=O", "Group label": "intermediate"}
{"Compound": "CC[C@H](C)[C@@H]1NC(=O)[C@H](CC2CC2)N(C)C(=O)C[C@@H](C(=O)N2CCCC2)N(C)C(=O)[C@H](C2CCCC2)N(C)C(=O)C2(CCC2)NC(=O)[C@@H]2C[C@H](C)CN2C(=O)[C@H](CCc2cc(F)c(C(F)(F)F)c(F)c2)NC(=O)CN(C)C(=O)[C@H](Cc2ccc(C(F)(F)F)cc2)N2CC/C=C\\C[C@@H](C2=O)N(C)C(=O)CN(C)C1=O", "Group label": "intermediate"}
{"Compound": "CCCN1C(=O)CN(C)C(=O)CN(C)C(=O)[C@H]([C@@H](C)CC)NC(=O)[C@@H]2CCC=CCOc3ccc(cc3)C[C@H]1C(=O)N(C)CC(=O)N[C@@H](CCc1cc(F)c(C(F)(F)F)c(F)c1)C(=O)N1C[C@H](OCC)C[C@H]1C(=O)NC1(CCCC1)C(=O)N(C)[C@@H](C1CCCC1)C(=O)N(C)[C@H](C(=O)N(C)C)CC(=O)N2C [PP0900] ([X7]I[Sar][Sar][X8][Sar][hPhe(3,5-F2-4-CF3)][Hyp](Et)[Ac5c][NMeGly(cPent)][NMeD]-NMe2; staple 1-5; lactam N-11)", "Group label": "low"}
{"Compound": "CCO[C@@H]1C[C@H]2C(=O)NC3(CCC3)C(=O)N(C)[C@@H](C3CCCC3)C(=O)N(C)[C@H](C(=O)N(C)C)CC(=O)N(C)[C@@H](CC3CC3)C(=O)N[C@@H]([C@@H](C)CC)C(=O)N(C)CC(=O)N(C)[C@H]3C/C=C\\CCN(C3=O)[C@@H](Cc3ccc(C(F)(F)F)cc3)C(=O)N(C)CC(=O)N[C@@H](CCc3ccc(Cl)c(Cl)c3)C(=O)N2C1", "Group label": "intermediate"}
